assayed target: T1, rat α-CGRP (Rattus norvegicus, UniProt P01256)
T1 construct: rat α (1-37); purchased GenScript Corporation or Global Peptide Services
T1 sequence (P01256 83-119 limits assumed): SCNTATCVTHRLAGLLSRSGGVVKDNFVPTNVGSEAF
experiment summary: Biacore SPR affinity of Fab fragments to N-biotinylated rat α-CGRP on SA chip
Type: binding
condition details: 37° C., screening mode except underlined values
outcome measure: α-rat koff

INSERT INTO results (molecule, measured_result) VALUES
  ('M68: G1 variant; L1 R28N T30G; L2 L561; H2 E54K A57N S58D E64D; HC-FW3 L99T A100V (antibody, V domains shown) VH: EVQLVESGGGLVQPGGSLRLSCAASGFTFSNYWISWVRQAPGKGLEWVAEIRSKSDNDATHYADAVKGRFTISRDNAKNSLYLQMNSLRAEDTAVYYCTVYFDYGLAIQNYWGQGTLVTVSS VL: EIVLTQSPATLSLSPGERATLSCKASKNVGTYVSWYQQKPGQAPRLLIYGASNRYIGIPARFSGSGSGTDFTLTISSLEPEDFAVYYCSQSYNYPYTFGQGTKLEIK', '0.00676 s⁻¹');

Now look at this one.
Return reported α-rat koff; argument: M52: G1 variant; L1 R28N; L2 L561; H2 E54K A57N S58A; HC-FW3 L99T A100V (antibody, V domains shown) VH: EVQLVESGGGLVQPGGSLRLSCAASGFTFSNYWISWVRQAPGKGLEWVAEIRSKSDNAATHYAEAVKGRFTISRDNAKNSLYLQMNSLRAEDTAVYYCTVYFDYGLAIQNYWGQGTLVTVSS VL: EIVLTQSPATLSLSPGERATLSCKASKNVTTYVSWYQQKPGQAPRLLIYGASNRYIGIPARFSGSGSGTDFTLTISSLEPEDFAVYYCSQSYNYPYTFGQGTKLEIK
0.00229 s⁻¹

Source listed as patent US20190071490A1.
